Cited source: patent US9296720B2

# System: HIV-1NL4-3 Wild Type
# method_description: Luminescence reduction assay, MT4 cells infected with HIV-1NL4-3 luciferase reporter virus, wild type
# Type: cell-based
# test_parameters: Human immunodeficiency virus 1, MT4, MT4 cells, 2% FCS
property_label: EC50

| compound | reported |
| --- | --- |
| O=C(c1cc(-c2cc(F)cc(OC(F)(F)F)c2)n(-c2ccnc(Cl)c2)n1)N1CCS(=O)(=O)C1 [Example 65] | 0.026 µM |
| O=C1CN(C(=O)c2cc(-c3cc(Br)cc(OC(F)(F)F)c3)n(-c3cccnc3)n2)CN1 [Example 28] | 0.005 µM |
| O=C1CN(C(=O)c2cc(-c3cc(Br)cc(OC(F)(F)F)c3)n(-c3cccc(Cl)n3)n2)CN1 [Example 27] | 0.098 µM |
| O=C(c1cc(-c2cc(Cl)cc(OC(F)F)c2)n(-c2cccnc2)n1)N1CCSC1 [Example 82] | 0.016 µM |
| O=C1CN(C(=O)c2cc(-c3cc(F)cc(OC(F)F)c3)n(-c3ccnc(Cl)c3)n2)CCN1 [Example 69] | 0.32 µM |
| O=C(c1cc(-c2cc(Br)cc(OC(F)(F)F)c2)n(-c2ccc(Cl)nc2)n1)N1CCSC1 [Example 36] | 0.149 µM |
| O=C1CN(C(=O)c2cc(-c3cc(F)cc(Br)c3)n(-c3cccnc3)n2)CN1 [Example 90] | 0.003 µM |
| N#Cc1cc(OC(F)(F)F)cc(-c2cc(C(=O)N3CNC(=O)C3)nn2-c2cccnc2)c1 [Example 88] | 0.015 µM |

* * *

Measured EC50, listed per entry for reference.
# Test system: HIV-1NL4-3 Wild Type
# method_description: Luminescence reduction assay, MT4 cells infected with HIV-1NL4-3 luciferase reporter virus, wild type
# Type: cell-based
# test_parameters: Human immunodeficiency virus 1, MT4, MT4 cells, 2% FCS
# Source text: For this assay, HIV-1NL4-3 reporter viruses are used, which carry the luciferase164 gene (lu164) instead of the nef gene. The viruses are generated by transfection of 293T cells with the corresponding proviral pNL4-3 plasmid (Lipofectamine Reagent, Invitrogen, Karlsruhe, Germany). […] MT4 cells infected with these reporter viruses (NIH AIDS Research and Reference Reagent Program) secrete luciferase into the medium, which makes possible the luminometric quantification of the virus replication. […]

| compound | system_name | EC50, µM |
| --- | --- | --- |
| O=C(c1cc(-c2cc(F)cc(OCC(F)(F)F)c2)n(-c2cccnc2)n1)N1CCSC1 | HIV-1NL4-3 Wild Type | 0.038 |
| Cc1cc(-n2nc(C(=O)N3CC[S+]([O-])C3)cc2-c2cc(F)cc(Cl)c2)ccn1 (stereo not shown) | HIV-1NL4-3 Wild Type | 0.066 |
| O=C1CN(C(=O)c2cc(-c3cc(F)cc(OC(F)(F)F)c3)n(-c3cccnc3)n2)CN1 | HIV-1NL4-3 Wild Type | 0.016 |
| O=C1CN(C(=O)c2cc(-c3cc(F)cc(Cl)c3)n(-c3ccc(Cl)nc3)n2)CN1 | HIV-1NL4-3 Wild Type | 0.01 |
| Cc1ccc(-n2nc(C(=O)N3CNC(=O)C3)cc2-c2cc(F)cc(Cl)c2)cn1 | HIV-1NL4-3 Wild Type | 0.007 |
| O=C1CN(C(=O)c2cc(-c3cc(Cl)cc(OC(F)(F)F)c3)n(-c3cccnc3)n2)CN1 | HIV-1NL4-3 Wild Type | 0.014 |
| COc1cc(OC(F)(F)F)cc(-c2cc(C(=O)N3CNC(=O)C3)nn2-c2cccnc2)c1 | HIV-1NL4-3 Wild Type | 0.01 |
| O=C1CN(C(=O)c2cc(-c3cc(Br)cc(OC(F)(F)F)c3)n(-c3ccc(Cl)nc3)n2)CN1 | HIV-1NL4-3 Wild Type | 0.01 |
| O=C1CN(C(=O)c2cc(-c3cncc(OC(F)F)c3)n(-c3ccc(F)c(Cl)c3)n2)CN1 | HIV-1NL4-3 Wild Type | 0.018 |
| COc1cncc(-c2cc(C(=O)N3CCNC(=O)C3)nn2-c2ccc(F)c(Cl)c2)c1 | HIV-1NL4-3 Wild Type | 0.205 |
| O=C1CN(C(=O)c2cc(-c3cncc(C(F)(F)F)c3)n(-c3ccc(F)c(Cl)c3)n2)CCN1 | HIV-1NL4-3 Wild Type | 0.299 |
| O=C1CN(C(=O)c2cc(-c3cc(Cl)cc(OC(F)F)c3)n(-c3cccnc3)n2)CN1 | HIV-1NL4-3 Wild Type | 0.003 |
| COc1cc(-n2nc(C(=O)N3CNC(=O)C3)cc2-c2cc(F)cc(Cl)c2)ccn1 | HIV-1NL4-3 Wild Type | 0.004 |
| O=C1CN(C(=O)c2cc(-c3cc(F)cc(Cl)c3)n(-c3ccc(Cl)nc3)n2)CCN1 | HIV-1NL4-3 Wild Type | 0.06 |
| O=C1CN(C(=O)c2cc(-c3cc(F)cc(Cl)c3)n(-c3cccnc3)n2)CN1 | HIV-1NL4-3 Wild Type | 0.006 |
| O=C(c1cc(-c2cc(Cl)cc(OC(F)(F)F)c2)n(-c2cccnc2)n1)N1CCS(=O)(=O)C1 | HIV-1NL4-3 Wild Type | 0.038 |
| O=C1CN(C(=O)c2cc(-c3cc(F)cc(Br)c3)n(-c3ccnc(Cl)c3)n2)CCN1 | HIV-1NL4-3 Wild Type | 0.016 |
| O=C1CN(C(=O)c2cc(-c3cc(F)cc(Cl)c3)n(-c3cncc(Cl)c3)n2)CCN1 | HIV-1NL4-3 Wild Type | 0.149 |
| O=C1CN(C(=O)c2cc(-c3cc(Br)cc(OC(F)(F)F)c3)n(-c3ccnc(C(F)(F)F)c3)n2)CN1 | HIV-1NL4-3 Wild Type | 0.102 |
| O=C(c1cc(-c2cc(F)cc(OCC(F)(F)F)c2)n(-c2ccc[n+]([O-])c2)n1)N1CCS(=O)(=O)C1 | HIV-1NL4-3 Wild Type | 0.272 |
| O=C(c1cc(-c2cc(F)cc(OC(F)(F)F)c2)n(-c2ccnc(Cl)c2)n1)N1CC[S+]([O-])C1 (stereo not shown) | HIV-1NL4-3 Wild Type | 0.103 |
| O=C1CN(C(=O)c2cc(-c3cc(F)cc(OCC(F)(F)F)c3)n(-c3cccnc3)n2)CCN1 | HIV-1NL4-3 Wild Type | 0.013 |
| O=C(c1cc(-c2cc(Br)cc(OC(F)(F)F)c2)n(-c2ccnc(C(F)(F)F)c2)n1)N1CCSC1 | HIV-1NL4-3 Wild Type | 1.28 |
| O=C1CN(C(=O)c2cc(-c3cc(F)cc(Cl)c3)n(-c3ccnc(C(F)(F)F)c3)n2)CCN1 | HIV-1NL4-3 Wild Type | 0.248 |
| O=C1CN(C(=O)c2cc(-c3cncc(Cl)c3)n(-c3ccc(F)c(Cl)c3)n2)CCN1 | HIV-1NL4-3 Wild Type | 0.016 |
| O=C(c1cc(-c2cc(F)cc(OC(F)(F)F)c2)n(-c2cccnc2)n1)N1CCSC1 | HIV-1NL4-3 Wild Type | 0.256 |
| COc1cncc(-c2cc(C(=O)N3CNC(=O)C3)nn2-c2ccc(F)c(Cl)c2)c1 | HIV-1NL4-3 Wild Type | 0.026 |
| O=C1CN(C(=O)c2cc(-c3cc(F)cc(Cl)c3)n(-c3ccnc(Cl)c3)n2)CN1 | HIV-1NL4-3 Wild Type | 0.005 |
| O=C1CN(C(=O)c2cc(-c3cc(F)cc(Cl)c3)n(-c3ccccn3)n2)CN1 | HIV-1NL4-3 Wild Type | 0.345 |
| Cc1ccc(-n2nc(C(=O)N3CNC(=O)C3)cc2-c2cc(Br)cc(OC(F)(F)F)c2)cn1 | HIV-1NL4-3 Wild Type | 0.007 |
| O=C1CN(C(=O)c2cc(-c3cncc(C(F)(F)F)c3)n(-c3ccc(F)c(Cl)c3)n2)CN1 | HIV-1NL4-3 Wild Type | 0.082 |
